- Tested on: lymphocytic leukemia P388
- EXPERIMENTAL PROTOCOL: Lymphocytic leukemia P388 test
- Type: in vivo, BDF1 mice
- CONDITION SUMMARY: Dose 200 mg/kg intraperitoneally on days 1, 5 and 9

{"columns": ["GIVEN SMILES", "Median Survival (days)"],
 "data": [
  ["CCCCCCc1ccc(C(=O)N2CCN=C2N(N=Cc2c3ccccc3c(C=NN(C(=O)c3ccc(CCCCCC)cc3)C3=NCCN3C(=O)c3ccc(CCCCCC)cc3)c3ccccc23)C(=O)c2ccc(CCCCCC)cc2)cc1", 14],
  ["O=C(O)CCCC(=O)N1CCN=C1NN=Cc1c2ccccc2c(C=NNC2=NCCN2C(=O)CCCC(=O)O)c2ccccc12", 23],
  ["CC(=O)N1CCN=C1N(N=Cc1c2ccccc2c(C=NN(C(C)=O)C2=NCCN2)c2ccccc12)C(C)=O", 17.5],
  ["CCCC(=O)N1CCN=C1N(N=Cc1c2ccccc2c(C=NN(C(=O)CCC)C2=NCCN2C(=O)CCC)c2ccccc12)C(=O)CCC", 11.5],
  ["O=C(c1c(F)c(F)c(F)c(F)c1F)N1CCN=C1N(N=Cc1c2ccccc2c(C=NN(C(=O)c2c(F)c(F)c(F)c(F)c2F)C2=NCCN2C(=O)c2c(F)c(F)c(F)c(F)c2F)c2ccccc12)C(=O)c1c(F)c(F)c(F)c(F)c1F", 12],
  ["O=CN1CCN=C1NN=Cc1c2ccccc2c(C=NNC2=NCCN2C=O)c2ccccc12", 12],
  ["O=C(c1ccccc1F)N1CCN=C1N(N=Cc1c2ccccc2c(C=NN(C(=O)c2ccccc2F)C2=NCCN2C(=O)c2ccccc2F)c2ccccc12)C(=O)c1ccccc1F", 12],
  ["O=C(c1ccccc1)N1CCN=C1N(N=Cc1c2ccccc2c(C=NN(C(=O)c2ccccc2)C2=NCCN2C(=O)c2ccccc2)c2ccccc12)C(=O)c1ccccc1", 32],
  ["COc1ccc(C(=O)N2CCN=C2N(N=Cc2c3ccccc3c(C=NN(C(=O)c3ccc(OC)cc3)C3=NCCN3C(=O)c3ccc(OC)cc3)c3ccccc23)C(=O)c2ccc(OC)cc2)cc1", 16],
  ["CC(C)(C)CC(=O)N1CCN=C1N(N=Cc1c2ccccc2c(C=NN(C(=O)CC(C)(C)C)C2=NCCN2C(=O)CC(C)(C)C)c2ccccc12)C(=O)CC(C)(C)C", 13],
  ["O=C(c1cccc([N+](=O)[O-])c1)N1CCN=C1N(N=Cc1c2ccccc2c(C=NN(C(=O)c2cccc([N+](=O)[O-])c2)C2=NCCN2C(=O)c2cccc([N+](=O)[O-])c2)c2ccccc12)C(=O)c1cccc([N+](=O)[O-])c1", 21.5],
  ["O=CN1CCN=C1N(C=O)N=Cc1c2ccccc2c(C=NN(C=O)C2=NCCN2C=O)c2ccccc12", 11.5]
]}

---

Recorded Median Survival values for a group of molecules are listed next.
- System: lymphocytic leukemia P388
- EXPERIMENTAL PROTOCOL: Lymphocytic leukemia P388 test
- Assay type: in vivo, BDF1 mice
- CONDITION SUMMARY: Dose 25 mg/kg intraperitoneally on days 1, 5 and 9
ATTRIBUTE MEASURED: Median Survival (days)

{"columns": ["MOLECULE", "ASSAY SYSTEM", "UNIT SPEC", "MEASURED RESULT"],
 "data": [
  ["CCCC(=O)N1CCN=C1NN=Cc1c2ccccc2c(C=NNC2=NCCN2C(=O)CCC)c2ccccc12", "lymphocytic leukemia P388", "days", 12.5],
  ["CC(=O)N1CCN=C1NN=Cc1c2ccccc2c(C=NNC2=NCCN2C(C)=O)c2ccccc12", "lymphocytic leukemia P388", "days", 10.5],
  ["O=C(c1ccccc1)N1CCN=C1N(N=Cc1c2ccccc2c(C=NN(C(=O)c2ccccc2)C2=NCCN2C(=O)c2ccccc2)c2ccccc12)C(=O)c1ccccc1", "lymphocytic leukemia P388", "days", 19.5],
  ["CC(C)(C)OC(=O)N1CCN=C1NN=Cc1c2ccccc2c(C=NNC2=NCCN2C(=O)OC(C)(C)C)c2ccccc12", "lymphocytic leukemia P388", "days", 22],
  ["O=C(c1cccc([N+](=O)[O-])c1)N1CCN=C1N(N=Cc1c2ccccc2c(C=NN(C(=O)c2cccc([N+](=O)[O-])c2)C2=NCCN2C(=O)c2cccc([N+](=O)[O-])c2)c2ccccc12)C(=O)c1cccc([N+](=O)[O-])c1", "lymphocytic leukemia P388", "days", 18],
  ["O=C(O)C1CCCCC1C(=O)N1CCN=C1NN=Cc1c2ccccc2c(C=NNC2=NCCN2C(=O)C2CCCCC2C(=O)O)c2ccccc12 (stereo not drawn)", "lymphocytic leukemia P388", "days", 18],
  ["N#Cc1ccc(C(=O)N2CCN=C2N(N=Cc2c3ccccc3c(C=NN(C(=O)c3ccc(C#N)cc3)C3=NCCN3C(=O)c3ccc(C#N)cc3)c3ccccc23)C(=O)c2ccc(C#N)cc2)cc1", "lymphocytic leukemia P388", "days", 12],
  ["O=C(c1ccccc1F)N1CCN=C1N(N=Cc1c2ccccc2c(C=NN(C(=O)c2ccccc2F)C2=NCCN2C(=O)c2ccccc2F)c2ccccc12)C(=O)c1ccccc1F", "lymphocytic leukemia P388", "days", 12],
  ["CC(=O)N1CCN=C1N(N=Cc1c2ccccc2c(C=NN(C(C)=O)C2=NCCN2)c2ccccc12)C(C)=O", "lymphocytic leukemia P388", "days", 15.5]
]}

meta.source: patent EP0338372A2
